- experimental target: EphB2 (Homo sapiens (Human), UniProt P29323)
- Sequence (P29323 19-1055): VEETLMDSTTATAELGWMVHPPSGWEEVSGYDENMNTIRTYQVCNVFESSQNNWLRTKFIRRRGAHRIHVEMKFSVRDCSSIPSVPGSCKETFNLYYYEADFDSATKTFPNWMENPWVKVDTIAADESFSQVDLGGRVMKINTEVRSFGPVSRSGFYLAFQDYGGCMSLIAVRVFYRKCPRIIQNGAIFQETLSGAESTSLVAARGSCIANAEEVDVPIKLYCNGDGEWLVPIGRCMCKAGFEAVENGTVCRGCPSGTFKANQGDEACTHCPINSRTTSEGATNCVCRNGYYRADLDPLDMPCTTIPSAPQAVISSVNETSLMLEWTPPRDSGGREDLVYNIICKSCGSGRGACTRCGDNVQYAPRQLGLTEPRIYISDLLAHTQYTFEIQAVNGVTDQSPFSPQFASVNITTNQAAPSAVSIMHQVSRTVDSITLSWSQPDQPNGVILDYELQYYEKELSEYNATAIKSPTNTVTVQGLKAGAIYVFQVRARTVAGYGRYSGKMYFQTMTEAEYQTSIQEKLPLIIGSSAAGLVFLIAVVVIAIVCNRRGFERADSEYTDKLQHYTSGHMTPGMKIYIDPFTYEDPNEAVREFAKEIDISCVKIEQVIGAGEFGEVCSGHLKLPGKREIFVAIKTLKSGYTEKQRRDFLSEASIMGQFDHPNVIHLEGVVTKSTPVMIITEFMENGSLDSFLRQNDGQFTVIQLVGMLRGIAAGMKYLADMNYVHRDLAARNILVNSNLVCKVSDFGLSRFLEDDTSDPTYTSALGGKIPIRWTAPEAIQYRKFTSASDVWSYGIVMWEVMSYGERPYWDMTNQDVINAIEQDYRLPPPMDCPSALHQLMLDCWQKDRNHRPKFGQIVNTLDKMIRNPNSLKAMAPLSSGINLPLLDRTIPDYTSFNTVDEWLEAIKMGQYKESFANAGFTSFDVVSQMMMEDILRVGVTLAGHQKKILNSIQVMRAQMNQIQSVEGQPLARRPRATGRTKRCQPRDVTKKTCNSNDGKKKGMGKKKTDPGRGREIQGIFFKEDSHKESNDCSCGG
- assay info: KiNativ assay
- Type: binding
- cond: H929 live cell, read-out: inhibition (10 μM)
quantity name: inhibition at 10 µM (%)
Response body: numeric value in %, unit text excluded.

Can you look up the measured inhibition at 10 µM of Nc1ncc(-c2ccc(NS(=O)(=O)C3CC3)cc2OC2CCCCC2)cc1-c1ccc2c(c1)CCNC2=O [Compound I-65] for me? 20.3

Can you look up the measured inhibition at 10 µM of Nc1ncc(-c2cccc3ncsc23)cc1-c1ccc2c(c1)CCNC2=O [Compound I-13] for me? 22.1

Can you look up the measured inhibition at 10 µM of Nc1ncc(-c2cccc([N+](=O)[O-])c2F)cc1-c1ccc2c(c1)CCNC2=O [Compound I-9] for me? -25

Can you look up the measured inhibition at 10 µM of CN(C1CC1)S(=O)(=O)c1ccc(-c2cnc(N)c(-c3ccc4c(c3)CCNC4=O)c2)c(F)c1 [Compound I-28] for me? -2

Can you look up the measured inhibition at 10 µM of COc1cc(NS(=O)(=O)C2CC2)ccc1-c1cnc(N)c(-c2ccc3c(c2)CCNC3=O)c1 [Compound I-50] for me? 8.2

Can you look up the measured inhibition at 10 µM of Nc1ncc(-c2ccc(NS(=O)(=O)C3CC3)cc2F)cc1-c1ccc2c(c1)CCNC2=O [Compound I-51] for me? 8.8

###

- experimental target: NEK1 (Homo sapiens (Human))
- Sequence (Q96PY6 whole entry): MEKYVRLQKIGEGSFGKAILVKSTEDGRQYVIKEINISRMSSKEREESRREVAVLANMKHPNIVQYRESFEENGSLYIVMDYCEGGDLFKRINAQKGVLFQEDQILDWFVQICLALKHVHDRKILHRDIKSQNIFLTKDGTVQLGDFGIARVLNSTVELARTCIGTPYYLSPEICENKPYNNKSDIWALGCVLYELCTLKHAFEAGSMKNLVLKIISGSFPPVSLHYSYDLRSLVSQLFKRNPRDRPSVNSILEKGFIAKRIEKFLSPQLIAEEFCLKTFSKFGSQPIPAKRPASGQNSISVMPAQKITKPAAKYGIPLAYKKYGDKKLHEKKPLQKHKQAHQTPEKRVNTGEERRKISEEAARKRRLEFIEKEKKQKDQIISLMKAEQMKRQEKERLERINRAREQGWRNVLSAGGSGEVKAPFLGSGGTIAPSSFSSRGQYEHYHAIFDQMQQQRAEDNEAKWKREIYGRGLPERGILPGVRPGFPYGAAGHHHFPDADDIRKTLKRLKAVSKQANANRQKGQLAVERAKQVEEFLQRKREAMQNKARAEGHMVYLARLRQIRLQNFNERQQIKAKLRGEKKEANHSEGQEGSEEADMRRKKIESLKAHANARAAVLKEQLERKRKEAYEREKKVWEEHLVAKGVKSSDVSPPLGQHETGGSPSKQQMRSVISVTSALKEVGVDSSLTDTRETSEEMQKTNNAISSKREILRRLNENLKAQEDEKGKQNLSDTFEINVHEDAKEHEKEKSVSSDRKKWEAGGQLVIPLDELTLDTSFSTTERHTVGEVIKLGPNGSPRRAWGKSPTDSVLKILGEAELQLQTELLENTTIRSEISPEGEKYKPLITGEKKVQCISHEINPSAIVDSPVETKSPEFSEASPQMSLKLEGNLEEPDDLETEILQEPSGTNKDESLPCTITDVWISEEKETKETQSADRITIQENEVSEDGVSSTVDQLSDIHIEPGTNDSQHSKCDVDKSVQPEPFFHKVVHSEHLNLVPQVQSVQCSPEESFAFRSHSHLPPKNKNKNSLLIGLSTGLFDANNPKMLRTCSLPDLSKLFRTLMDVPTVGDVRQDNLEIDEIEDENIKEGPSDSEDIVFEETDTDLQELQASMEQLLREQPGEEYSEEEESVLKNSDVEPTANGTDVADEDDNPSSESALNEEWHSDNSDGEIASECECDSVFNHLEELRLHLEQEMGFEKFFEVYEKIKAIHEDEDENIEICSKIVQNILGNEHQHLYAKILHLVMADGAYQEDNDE
- assay info: KiNativ assay
- Type: binding
- cond: H929 live cell, read-out: inhibition (10 μM)
quantity name: inhibition at 10 µM (%)
Response body: numeric value in %, unit text excluded.

Can you look up the measured inhibition at 10 µM of CN(C1CC1)S(=O)(=O)c1ccc(-c2cnc(N)c(-c3ccc4c(c3)CCNC4=O)c2)c(F)c1 for me? -14.1

Can you look up the measured inhibition at 10 µM of Nc1ncc(-c2ccc(NS(=O)(=O)C3CC3)cc2F)cc1-c1ccc2c(c1)CCNC2=O for me? 30.2

Can you look up the measured inhibition at 10 µM of Nc1ncc(-c2ccc(NS(=O)(=O)C3CC3)cc2OC2CCCCC2)cc1-c1ccc2c(c1)CCNC2=O for me? 9.3

Can you look up the measured inhibition at 10 µM of Nc1ncc(-c2cccc([N+](=O)[O-])c2F)cc1-c1ccc2c(c1)CCNC2=O for me? -34

Can you look up the measured inhibition at 10 µM of Nc1ncc(-c2cccc3ncsc23)cc1-c1ccc2c(c1)CCNC2=O for me? 6.2

Can you look up the measured inhibition at 10 µM of COc1cc(NS(=O)(=O)C2CC2)ccc1-c1cnc(N)c(-c2ccc3c(c2)CCNC3=O)c1 for me? 16.8

###

- experimental target: SNRK (Homo sapiens (Human))
- Sequence (Q9NRH2 whole entry): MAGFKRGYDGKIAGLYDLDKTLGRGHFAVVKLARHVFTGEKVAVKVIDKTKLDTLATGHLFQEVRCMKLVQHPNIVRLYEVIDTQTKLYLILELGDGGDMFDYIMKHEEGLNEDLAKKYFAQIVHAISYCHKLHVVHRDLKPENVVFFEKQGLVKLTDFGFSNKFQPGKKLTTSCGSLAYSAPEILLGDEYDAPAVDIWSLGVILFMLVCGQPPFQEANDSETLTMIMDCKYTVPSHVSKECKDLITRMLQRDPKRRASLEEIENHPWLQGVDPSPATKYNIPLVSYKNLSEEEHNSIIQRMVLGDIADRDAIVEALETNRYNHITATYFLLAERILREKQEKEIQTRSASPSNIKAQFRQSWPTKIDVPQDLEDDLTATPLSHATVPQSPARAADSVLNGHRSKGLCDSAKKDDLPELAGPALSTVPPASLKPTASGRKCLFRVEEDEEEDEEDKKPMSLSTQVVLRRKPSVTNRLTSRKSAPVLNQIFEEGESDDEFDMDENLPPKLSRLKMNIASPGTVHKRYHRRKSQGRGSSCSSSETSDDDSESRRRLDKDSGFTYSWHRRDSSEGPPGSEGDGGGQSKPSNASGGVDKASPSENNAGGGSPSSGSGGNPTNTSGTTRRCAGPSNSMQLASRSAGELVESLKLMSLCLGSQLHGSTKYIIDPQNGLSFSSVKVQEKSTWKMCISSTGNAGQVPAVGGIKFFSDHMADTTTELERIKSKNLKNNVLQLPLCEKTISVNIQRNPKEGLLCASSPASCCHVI
- assay info: KiNativ assay
- Type: binding
- cond: H929 live cell, read-out: inhibition (10 μM)
quantity name: inhibition at 10 µM (%)
Response body: numeric value in %, unit text excluded.

Can you look up the measured inhibition at 10 µM of Nc1ncc(-c2ccc(NS(=O)(=O)C3CC3)cc2OC2CCCCC2)cc1-c1ccc2c(c1)CCNC2=O for me? 1.1

Can you look up the measured inhibition at 10 µM of Nc1ncc(-c2cccc3ncsc23)cc1-c1ccc2c(c1)CCNC2=O for me? 6.2

Can you look up the measured inhibition at 10 µM of CN(C1CC1)S(=O)(=O)c1ccc(-c2cnc(N)c(-c3ccc4c(c3)CCNC4=O)c2)c(F)c1 for me? 0

Can you look up the measured inhibition at 10 µM of Nc1ncc(-c2cccc([N+](=O)[O-])c2F)cc1-c1ccc2c(c1)CCNC2=O for me? 43.7

Can you look up the measured inhibition at 10 µM of COc1cc(NS(=O)(=O)C2CC2)ccc1-c1cnc(N)c(-c2ccc3c(c2)CCNC3=O)c1 for me? 33.2

Can you look up the measured inhibition at 10 µM of Nc1ncc(-c2ccc(NS(=O)(=O)C3CC3)cc2F)cc1-c1ccc2c(c1)CCNC2=O for me? -26.2

src = patent US10710978B2
